target: Human plasma kallikrein (Homo sapiens (Human), UniProt P03952); assay: Kallikrein Assay (fluorogenic substrate Acetyl-K-P-R-AFC); conditions: Plasma Kallikrein (PKal)
Sequence (P03952 391-638): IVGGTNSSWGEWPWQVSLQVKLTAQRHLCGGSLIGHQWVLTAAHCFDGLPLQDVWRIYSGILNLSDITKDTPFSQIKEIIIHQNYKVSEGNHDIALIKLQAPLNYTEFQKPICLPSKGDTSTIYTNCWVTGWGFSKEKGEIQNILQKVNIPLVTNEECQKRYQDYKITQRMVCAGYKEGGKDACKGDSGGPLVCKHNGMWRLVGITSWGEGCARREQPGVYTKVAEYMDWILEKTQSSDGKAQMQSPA
Sequence (P03952 20-390 partner): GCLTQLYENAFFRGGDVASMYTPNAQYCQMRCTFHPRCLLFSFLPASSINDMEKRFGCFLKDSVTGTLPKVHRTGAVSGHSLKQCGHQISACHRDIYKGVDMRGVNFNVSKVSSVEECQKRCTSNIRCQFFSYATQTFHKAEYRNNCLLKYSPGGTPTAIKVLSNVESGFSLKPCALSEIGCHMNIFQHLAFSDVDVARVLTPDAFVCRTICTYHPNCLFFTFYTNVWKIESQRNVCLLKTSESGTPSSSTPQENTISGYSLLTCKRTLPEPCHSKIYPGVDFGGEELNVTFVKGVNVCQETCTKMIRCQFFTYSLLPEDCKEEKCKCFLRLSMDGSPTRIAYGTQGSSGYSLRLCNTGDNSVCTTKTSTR
// NB: equality with 3 nM counts as not satisfied; only IC50 strictly below is satisfied

Cc1nc(N2C[C@H]3C[C@H]3C2=O)ncc1C(C)n1cc(NC(=O)c2nc(-c3c(C(F)F)ccc(Cl)c3F)cnc2C)cn1 (single isomer, unassigned) [Example 43] | not satisfied
Cc1ncc(-c2c(C(F)F)ccc(Cl)c2F)nc1C(=O)Nc1cn(Cc2cnc(N3C[C@H]4C[C@H]4C3=O)c(C)n2)nn1 [Example 185] | satisfied
CCc1ncc(-c2c(C(F)F)ccc(Cl)c2F)nc1C(=O)Nc1cnn(Cc2cnc(N3C[C@H]4C[C@H]4C3=O)c3c2OCO3)c1 [Example 255] | satisfied
Cc1nc(C(C)n2cc(NC(=O)c3cncc(-c4c(C(F)F)ccc(Cl)c4F)n3)cn2)ncc1N1C[C@H]2C[C@H]2C1=O (single isomer, unassigned) [Example 4] | not satisfied
COc1c(N2C[C@H]3C[C@H]3C2=O)ncc(C(C)n2cc(NC(=O)c3cncc(-c4c(C(F)F)ccc(Cl)c4F)n3)cn2)c1C (single isomer, unassigned) [Example 154] | satisfied
Cc1cc(Cn2cc(NC(=O)c3nc(-c4c(C(F)F)ccc(Cl)c4F)cnc3C(C)O)cn2)nnc1N1C[C@H]2C[C@H]2C1=O (single isomer, unassigned) [Example 208] | not satisfied
